pKd: −log10 of the molar value.
So I've got pKd readings for A. borkumensis YdaH (Alcanivorax borkumensis, UniProt Q0VR69), take a look.
property: pKd

Nc1ccc(S(=O)(=O)Nc2nccs2)cc1 [sulfathiazole]; 6.22

[A] Cc1cc(C)nc(NS(=O)(=O)c2ccc(N)cc2)n1 [sulfamethazine]
[B] Nc1ccc(S(=O)(=O)Nc2ncccn2)cc1 [sulfadiazine]
Q. Which record would sort first by descending pKd, A or B ? Provide the label of your selected option as the answer.
A. A
(A: 6.39, B: 5.15)
